From: ChEMBL document CHEMBL3774377

Quick reference: Activity of the listed items.
# system: GABA transporter 4 (Mus musculus) (UniProt P31650)
# Sequence (P31650 whole entry): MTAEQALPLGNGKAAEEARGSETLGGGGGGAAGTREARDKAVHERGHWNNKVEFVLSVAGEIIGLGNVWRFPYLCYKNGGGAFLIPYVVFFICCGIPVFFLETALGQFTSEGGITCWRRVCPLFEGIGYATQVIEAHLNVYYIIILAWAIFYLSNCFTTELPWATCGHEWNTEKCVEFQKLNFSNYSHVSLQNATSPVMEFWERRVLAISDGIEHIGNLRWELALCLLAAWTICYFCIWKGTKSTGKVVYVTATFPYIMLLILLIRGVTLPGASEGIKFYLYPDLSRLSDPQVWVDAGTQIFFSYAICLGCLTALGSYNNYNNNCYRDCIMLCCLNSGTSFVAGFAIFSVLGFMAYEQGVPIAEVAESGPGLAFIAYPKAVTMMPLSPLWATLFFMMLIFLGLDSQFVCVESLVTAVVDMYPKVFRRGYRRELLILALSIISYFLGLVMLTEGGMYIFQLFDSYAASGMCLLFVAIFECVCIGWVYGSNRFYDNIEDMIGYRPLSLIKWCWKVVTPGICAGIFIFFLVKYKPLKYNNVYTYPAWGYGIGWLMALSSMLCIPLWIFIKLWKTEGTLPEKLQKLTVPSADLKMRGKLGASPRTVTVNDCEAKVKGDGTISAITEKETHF
# test_name: Inhibition of mouse GAT4 expressed in HEK293 cells assessed as remaining [3H]GABA uptake at 100 uM preincubated for 25 mins followed by [3H]GABA/unlabeled GABA addition measured after 4 mins by liquid scintillation counting analysis
# Type: cell-based
All answers are understood in %, so give the number only.

For this compound ( O=C(O)[C@H]1CNCC[C@H]1CCCC#Cc1ccccc1-c1ccccc1 (racemic) ), measured Activity is 77.8

For this compound ( CN1CC[C@H](CCC/C=C/c2ccccc2Cc2ccccc2)[C@@H](C(=O)O)C1 (racemic) ), measured Activity is 45.7

For this compound ( O=C(O)[C@H]1CNCC[C@H]1CCC/C=C/c1ccccc1-c1ccccc1 (racemic) ), measured Activity is 52.5

For this compound ( CN1CC[C@H](CCC#Cc2ccccc2Cc2ccccc2)[C@@H](C(=O)O)C1 (racemic) ), measured Activity is 84.4

For this compound ( O=C(O)[C@H]1CNCC[C@H]1CC/C=C/c1ccccc1-c1ccccc1 (racemic) ), measured Activity is 63.5

For this compound ( O=C(O)[C@H]1CNCC[C@@H]1CC/C=C/c1ccccc1-c1ccccc1 (racemic) ), measured Activity is 84.7

For this compound ( CN1CC[C@H](CCCC#Cc2ccccc2-c2ccccc2)[C@@H](C(=O)O)C1 (racemic) ), measured Activity is 69.4

----------
# system: Sodium- and chloride-dependent GABA transporter 1 (Mus musculus)
# test_name: Displacement of NO 711 from mouse GAT1 expressed in HEK293 cell membranes after 40 mins by LC-ESI-MS-MS-based MS binding assay
reported_endpoint: Ki (µM)
All answers are understood in µM, so give the number only.

{"compound": "CN1CC[C@H](CCC/C=C/c2ccccc2Cc2ccccc2)[C@@H](C(=O)O)C1 (racemic)", "quantitative_result": 39.9}
{"compound": "O=C(O)[C@H]1CNCC[C@@H]1CCC/C=C/c1ccccc1Cc1ccccc1 (racemic)", "quantitative_result": 77.1}
{"compound": "O=C(O)[C@H]1CNCC[C@H]1CCCC/C=C/c1ccccc1Cc1ccccc1 (racemic)", "quantitative_result": 35.4}

For this compound ( CN1CC[C@H](CCC/C=C/c2ccccc2-c2ccccc2)[C@@H](C(=O)O)C1 (racemic) ), measured Ki is 72.4

----------
# Test system: Sodium- and chloride-dependent GABA transporter 2 (Mus musculus)
# test_name: Inhibition of mouse GAT3 expressed in HEK293 cells assessed as remaining [3H]GABA uptake at 100 uM preincubated for 25 mins followed by [3H]GABA/unlabeled GABA addition measured after 4 mins by liquid scintillation counting analysis
The threshold is inclusive: Activity of exactly 60% counts as Fulfilled; values below receive Not fulfilled.

Example entries and their recorded answers appear below.
{"compound": "O=C(O)[C@H]1CNCC[C@H]1CCCC#Cc1ccccc1-c1ccccc1 (racemic)", "class_assignment": "Fulfilled"}
{"compound": "CN1CC[C@H](CCC/C=C/c2ccccc2-c2ccccc2)[C@@H](C(=O)O)C1 (racemic)", "class_assignment": "Not fulfilled"}
{"compound": "CN1CC[C@H](CCC#Cc2ccccc2Cc2ccccc2)[C@@H](C(=O)O)C1 (racemic)", "class_assignment": "Fulfilled"}
{"compound": "O=C(O)[C@H]1CNCC[C@H]1CC/C=C/c1ccccc1-c1ccccc1 (racemic)", "class_assignment": "Not fulfilled"}
{"compound": "CN1CC[C@H](CC/C=C/c2ccccc2-c2ccccc2)[C@@H](C(=O)O)C1 (racemic)", "class_assignment": "Fulfilled"}

query: Hi, just wondering whether O=C(O)[C@H]1CNCC[C@H]1CCC/C=C/c1ccccc1-c1ccccc1 (racemic) shows Activity of 60% or higher.
result: Not fulfilled
